Source: patent US11564969B2

Provide the recorded GNRHR Stimulation at 1 μM for the entries that follow.
target-system: GnRHR (Homo sapiens, UniProt P30968)
Sequence (P30968 1-328): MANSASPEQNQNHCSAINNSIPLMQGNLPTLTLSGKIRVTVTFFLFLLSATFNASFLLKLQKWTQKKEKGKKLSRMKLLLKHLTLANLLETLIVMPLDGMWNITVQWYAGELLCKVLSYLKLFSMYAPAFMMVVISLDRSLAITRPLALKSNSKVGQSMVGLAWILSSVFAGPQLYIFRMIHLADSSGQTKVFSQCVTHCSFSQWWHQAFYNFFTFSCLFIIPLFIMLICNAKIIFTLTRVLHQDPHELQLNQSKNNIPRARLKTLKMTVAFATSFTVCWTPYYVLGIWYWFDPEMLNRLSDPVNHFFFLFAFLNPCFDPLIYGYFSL
study-conditions: 1000.0
Square brackets hold non-standard residues; d marks the D form. Peptide text beside a SMILES is read from it. d2Nal = N[C@H](Cc1ccc2ccccc2c1)C(=O)O; pGlu = O=C1CC[C@@H](C(=O)O)N1
Numeric only. Scale: percentage

Which GNRHR Stimulation at 1 μM value is on record for CC(C)C[C@H](NC(=O)[C@@H](Cc1ccc2ccccc2c1)NC(=O)[C@H](Cc1c[nH]cn1)NC(=O)[C@H](CO)NC(=O)[C@H](Cc1c[nH]c2ccccc12)NC(=O)[C@H](Cc1c[nH]cn1)NC(=O)[C@@H]1CCC(=O)N1)C(=O)N[C@@H](CCCNC(=N)N)C(=O)N1CCC[C@H]1C(=O)NCC(N)=O [Compound 23] ([pGlu]HWSH[d2Nal]LRPG-NH2) ?
106

Query (compound): CC(C)C[C@H](NC(=O)[C@@H](Cc1ccc2ccccc2c1)NC(=O)[C@H](Cc1c[nH]cn1)NC(=O)[C@H](CO)NC(=O)[C@H](Cc1c[nH]c2ccccc12)NC(=O)[C@H](Cc1c[nH]cn1)NC(=O)[C@@H]1CCC(=O)N1)C(=O)N[C@@H](Cc1ccc(O)cc1)C(=O)N1CCC[C@H]1C(=O)NCC(N)=O [Compound 28] ([pGlu]HWSH[d2Nal]LYPG-NH2) ; field requested: GNRHR Stimulation at 1 μM
95

###

method-summary: Solubility analysis in PBS (Analysis Method B)
Format: physicochemical
study-conditions: pH 7.4
Experimental: The solubility of compounds of the invention was tested as described in the general methods. Solubility was then graded according to a rating between 1 to 5, where 1 is most soluble and 5 is least soluble.
Counter-ions that a name gives are not always drawn. Square brackets hold non-standard residues; d marks the D form. Peptide text beside a SMILES is read from it. dHis(τ-Bn) = N[C@H](Cc1cn(Cc2ccccc2)cn1)C(=O)O; d2Nal = N[C@H](Cc1ccc2ccccc2c1)C(=O)O; pGlu = O=C1CC[C@@H](C(=O)O)N1
Task for the reader: assign each of the following compounds its reported Solubility grading.
Reply briefly: the number, and no unit.

Request the reported Solubility grading associated with CC(C)C[C@H](NC(=O)[C@@H](Cc1ccc2ccccc2c1)NC(=O)[C@H](Cc1c[nH]cn1)NC(=O)[C@H](CO)NC(=O)[C@H](Cc1c[nH]c2ccccc12)NC(=O)[C@H](Cc1c[nH]cn1)NC(=O)[C@@H]1CCC(=O)N1)C(=O)N[C@@H](CCCNC(=N)N)C(=O)N1CCC[C@H]1C(=O)NCC(N)=O [Compound 23] ([pGlu]HWSH[d2Nal]LRPG-NH2)
1

Which Solubility grading value belongs to CCNC(=O)[C@@H]1CCCN1C(=O)[C@H](CCCNC(=N)N)NC(=O)[C@H](CC(C)C)NC(=O)[C@@H](Cc1cn(Cc2ccccc2)cn1)NC(=O)[C@H](Cc1ccc(O)cc1)NC(=O)[C@H](CO)NC(=O)[C@H](Cc1c[nH]c2ccccc12)NC(=O)[C@H](Cc1cnc[nH]1)NC(=O)[C@@H]1CCC(=O)N1 [Histrelin acetate, histrelin, reference compound] ?
4

Which value of Solubility grading has been reported for CCNC(=O)[C@@H]1CCCN1C(=O)[C@H](CCCNC(=N)N)NC(=O)[C@H](Cc1c[nH]c2ccccc12)NC(=O)[C@@H](Cc1cn(Cc2ccccc2)cn1)NC(=O)[C@H](Cc1c[nH]cn1)NC(=O)[C@H](CO)NC(=O)[C@H](Cc1c[nH]c2ccccc12)NC(=O)[C@H](Cc1c[nH]cn1)NC(=O)[C@@H]1CCC(=O)N1 [Compound 60] ([pGlu]HWSH[dHis(τ-Bn)]WRP-NHEt) in the records?
2

Which measured Solubility grading value corresponds to CC(C)C[C@H](NC(=O)[C@@H](Cc1ccc2ccccc2c1)NC(=O)[C@H](Cc1ccc(O)cc1)NC(=O)[C@H](CO)NC(=O)[C@H](Cc1c[nH]c2ccccc12)NC(=O)[C@H](Cc1c[nH]cn1)NC(=O)[C@@H]1CCC(=O)N1)C(=O)N[C@@H](CCCNC(=N)N)C(=O)N1CCC[C@H]1C(=O)NCC(N)=O [Naferelin TFA, nafarelin, reference compound] ?
1

If you can, please state the reported Solubility grading value of NC(=O)CNC(=O)[C@@H]1CCCN1C(=O)[C@H](Cc1ccc(O)cc1)NC(=O)[C@H](Cc1c[nH]c2ccccc12)NC(=O)[C@@H](Cc1ccc2ccccc2c1)NC(=O)[C@H](Cc1c[nH]cn1)NC(=O)[C@H](CO)NC(=O)[C@H](Cc1c[nH]c2ccccc12)NC(=O)[C@H](Cc1c[nH]cn1)NC(=O)[C@@H]1CCC(=O)N1 [Compound 33] ([pGlu]HWSH[d2Nal]WYPG-NH2) .
2

What value of Solubility grading has been recorded for this entry: CCNC(=O)[C@@H]1CCCN1C(=O)[C@H](CCCNC(=N)N)NC(=O)[C@H](Cc1c[nH]c2ccccc12)NC(=O)[C@@H](CC(C)C)NC(=O)[C@H](Cc1ccc(O)cc1)NC(=O)[C@H](CO)NC(=O)[C@H](Cc1c[nH]c2ccccc12)NC(=O)[C@H](Cc1c[nH]cn1)NC(=O)[C@@H]1CCC(=O)N1 [Compound 44] ([pGlu]HWSY[dL]WRP-NHEt)
2
